tested on: A549; test: NCI tumour cell line growth inhibition, 48 h
The source made the active and inactive calls. Cut-off read from the data, not from the text of the source: active = GI50 up to about 1.1 µM and inactive = higher.
Quantity kind: GI50

INSERT INTO assay_data (compound, endpoint_result) VALUES
  ('CC(C)(C)C(=O)Nc1ccccc1Br', '> 100 µM (inactive)'),
  ('NC1=C(N2CCOCC2)C(=O)NC2=N/C(=C\c3ccccc3)C(=O)N21', '> 100 µM (inactive)'),
  ('C(=N\N=C1NCCN1)/c1ccc2ccccc2c1', '14.4 µM (inactive)'),
  ('Cc1ccccc1NC(=O)C(=O)c1c(O)c2ccc(O)cc2oc1=O', '> 100 µM (inactive)'),
  ('O=C1C(Br)=CC2(C=C1Br)CCNC1=C2C(=O)c2[nH]cnc2C1=O', '18.3 µM (inactive)'),
  ('Cc1ccc(C2NC(=O)c3ccccc3N2)c(C)c1 (stereo not given)', '5.65 µM (inactive)'),
  ('C/C(=N\NC(=S)N/N=C(\C)c1ccccn1)c1ccccn1', '2.18 µM (inactive)'),
  ('Cc1cc(N)c2cc(NC(=O)CCCCCCCCC(=O)Nc3ccc4nc(C)cc(N)c4c3)ccc2n1', '6.35 µM (inactive)'),
  ('Nc1cccc(OCc2nc(N)nc(N)c2-c2ccc(Cl)cc2)c1', '35.8 µM (inactive)'),
  ('COc1cc2c(cc1OC)-c1c(oc3cc(OC4OC(CO)C(O)C(O)C4O)c(OC)cc3c1=O)C(O)O2 (stereo not given)', '> 100 µM (inactive)'),
  ('Cc1occc1C(=S)Nc1ccc(Cl)c(/C=N/OC(C)C)c1', '22.3 µM (inactive)'),
  ('CCN(CC)c1ccc(/N=C2/C=CC(=O)c3ncccc32)c(C)c1', '11.2 µM (inactive)'),
  ('CN(CCCNC(=O)c1cn(C)c2c1Cc1ccccc1-2)CCCNC(=O)c1cn(C)c2c1Cc1ccccc1-2', '15.8 µM (inactive)'),
  ('CCOC(=O)C1N(S(=O)(=O)c2ccc(C)cc2)CCC12c1ccccc1N(C(C)=O)C2c1ccc(OC)c(OC)c1 (stereo not given)', '> 100 µM (inactive)'),
  ('CN(C)c1ccc(/C=N/c2ccc(-c3nc4ccccc4s3)cc2)cc1', '39.7 µM (inactive)'),
  ('CCOc1ccc(NC(=O)C(=O)C(/C(=N/N)C(=O)OC)c2nc3ccc([N+](=O)[O-])cc3nc2O)cc1 (stereo not given)', '> 100 µM (inactive)'),
  ('O=C1OC(C(O)C(O)C(O)CO)C(O)C1O (stereo not given)', '> 100 µM (inactive)'),
  ('C/C(=N\N=C(/S)N1CC2CCC(CC2)C1)c1cccc[n+]1[O-]', '4.98 µM (inactive)'),
  ('COc1cc2c(cc1OCCCC(=O)Nc1cc(C(=O)Nc3cc(C(=O)NCCCN(C)C)n(C)n3)n(C)n1)N=CC1CCCN1C2=O (stereo not given)', '36.1 µM (inactive)'),
  ('O=C(O)c1ccc([N+](=O)[O-])c(P(=O)(O)O)c1', '> 100 µM (inactive)'),
  ('O=C(CNc1nncs1)NO', '> 100 µM (inactive)'),
  ('O=C(CCN(CCO)CCO)Nc1ccc2c(c1)C(=O)c1ccc(NC(=O)CCN(CCO)CCO)cc1C2=O', '44.4 µM (inactive)'),
  ('Cc1oc2c(c1C)S(=O)(=O)C(C#N)=C(N(C)C)N2', '> 100 µM (inactive)'),
  ('CC(=O)NC(CCCCNCc1ccccc1)C(=O)NCc1ccccc1 (stereo not given)', '> 100 µM (inactive)'),
  ('O=c1[nH]c(N/N=C\C(O)C(O)C(O)CO)nc2ccccc12 (stereo not given)', '> 100 µM (inactive)'),
  ('CC(=O)OC1(C#N)CC2OC1C1NC21 (stereo not given)', '> 100 µM (inactive)'),
  ('CCCCCCCCCCCCCCCCCCNC(=O)OCC(CNS(=O)(=O)CCC[n+]1cccc2ccccc21)COC (stereo not given)', '1.47 µM (inactive)'),
  ('Cc1ccc(S(=O)(=O)NC2CCCCO2)cc1 (stereo not given)', '> 100 µM (inactive)'),
  ('Cc1cc2cc3cc(C)c(N)cc3nc2cc1N', '0.509 µM (active)'),
  ('CCSc1c2ccccc2nc2c(OC)ccc(OC)c12', '70.6 µM (inactive)'),
  ('COC(=O)c1c(OC(C)=O)ccc2c1c1c(OC(C)=O)c3ccccc3c(OC(C)=O)c1n2Cc1ccccc1', '2.75 µM (inactive)'),
  ('O=C(NC1CCC[C@H]1OC(=O)c1ccccc1)c1ccccc1 (stereo not given in full)', '40.4 µM (inactive)'),
  ('CCC(c1ccc(OC)cc1)C1NC(=S)NC1=O (stereo not given)', '> 50 µM (inactive)'),
  ('CCCNc1[nH]c(C(=O)c2ccccc2)c(N)c1C(=S)Nc1ccccc1', '> 100 µM (inactive)'),
  ('N#Cc1ccc(NC(=O)C(CC(=O)OCc2ccccc2)NC(=O)OCc2ccccc2)cc1 (stereo not given)', '> 10 µM (inactive)');
